Data provenance is patent US20240084017A1.

- Target Desc: human Mac-1 (integrin αMβ2, CD11b/CD18) (human, UniProt P11215 17-1152; P05107 23-769)
- Protocol Summary: flow cytometry, HEK293/Mac-1 cells; MFI in PBS over MFI in PBS/MnCl2
- Method: The HEK293/Mac-1 cells (clone1-4) were counted and washed twice with staining buffer (PBS containing 1% FBS, and 0.1% sodium azide). Cells were adjusted at a concentration of 1×10⁵ cells/ml in staining buffer and treated with/without 0.25 mM MnCl₂ (Sigma). […] After washing with the staining buffer, the cells were analyzed by flow cytometry. […] After washing with the staining buffer, the cells were analyzed by flow cytometry. […]
// values below are reported Mock/Mn^2+ Ratio
Output: the number by itself.

Exam item: Item anti-Mac-1 antibody clone 24G05 (antibody, human IgG4, V domains shown) VH: EVQLVESGGGLVQPGGSLRLSCAASGFTFTSYWMTWVRQAPGKGLEWVSTIVGGGGEADYADSVKGRFTISRDNSKNTLYLQMNSLRAEDTAVYYCARDYVADNHGAMDYWGQGTLVTVSS VL: DIQMTQSPSSLSASVGDRVTITCRASQGLSSYLNWYQQKPGKAPKLLIYGMSTLQSGVPSRFSGSGSGTDFTLTISSLQPEDFATYYCMQYYHWPYTFGQGTKVEIK : provide Mock/Mn^2+ Ratio
Marked response: 1.25

---
Exam item: Give recorded Mock/Mn^2+ Ratio. anti-Mac-1 antibody clone 28A12 (antibody, human IgG4, V domains shown) VH: QVKLQESGPELVKPGASVKISCKASGYSFTDYNMNWVKQSNGKSLEWIGEINPGYGTSRYNQKFKDKATLTVDQSSSTAYMQLNSLTSEDSAVYYCARADVDYGDTMDYWGQGTTVTVSS VL: DIELTQSPAIMSASPGEKVTMTCSASSSVSDMHWYQQKSGNSPKRWIYDTSKLASGVPVRFSGSGSGTSYSLTISSMEAEDAATYYCQQWSSNPPTFGAGTKLELK
Marked response: 1.48

Exam item: Answer with reported Mock/Mn^2+ Ratio of anti-Mac-1 antibody clone DF4-25 (antibody, human IgG4, V domains shown) VH: EVQLVESGGGLVQPGGSLRLSCAASGFTFKDYWLSWVRQAPGKGLEWVSIINYGGSETYYADSVKGRFTISRDNSKNTLYLQMNSLRAEDTAVYYCARTQTSYVMDYWGQGTLVTVSS VL: DIQMTQSPSSLSASVGDRVTITCRASQSVRSGLNWYQQKPGKAPKLLIYAASSLQSGVPRRFSGSGSGTDFTLTISSLQPEDFATYYCMQSHSWPLTFGQGTKVEIK
Marked response: 1.17
